All values here come from patent US7026443.

# assay-system: HLA-A*0301 (human)
observable: binding affinity ratio (IC50 of standard peptide / IC50 of test peptide)
Lab note: record just the number, no unit beside it.

Param item = IAQLKDLLK (modifications not checked) [HPV18 E1 198 …] ; retrieve measured binding affinity ratio (IC50 of standard peptide / IC50 of test peptide).
0.0003

Can you check MLIQPPKLR (modifications not checked) [… (HPV18 E1, position 312, 9 amino acids)] next?
0.0005

Same question, LVRNFKSDK (modifications not checked) [… (HPV18 E1, position 229, 9 amino acids)] this time
0.0005

Proceed to LVRPFKSNK (modifications not checked) [HPV16 E1 222 …]
0.07

Would you kindly repeat that for TAAALYWYK (modifications not checked) [HPV16 E1 315 …] ?
0.78

Moving on to FITFLGALK (modifications not checked) [HPV18 E1 460 …]
0.032

MSFLTALKR (modifications not checked) [HPV16 E1 454 …] , same question.
0.087

Follow-up entry: CIDFYSRIR (modifications not checked) [HPV45 E6 peptide … (position 68, 9 amino acids)]
0.001

Next record, please: ALLRYKCGK (modifications not checked) [HPV18 E1 peptide … (position 284, 9 amino acids)]
0.09

Please do the same for SMSQWIKYR (modifications not checked) [HPV16 E1 421 …] as well.
0.69
